# Method: A CellTox Green Cytotoxicity Assay to monitor cytotoxicity in HEK293 cells - 40 hour (AID 1224871); also: nearly all actives have a fitted effect of over 45% in size
# Conditions: CellTox Green fluorescence; series mostly up to 76.8 µM
Results filed as inconclusive are left out. Activity calls are given as the source filed them. Calls follow the shape of the dose curve; as a rule, active = well fitted activation curve with a large enough effect in the repeat runs; inconclusive = weak or mixed curves; inactive = flat fitted curve, though single readings scatter.
The reply should name one outcome from TRUE for active, FALSE for inactive

Observe how each entry below is paired with its result.
CNC(C)Cc1ccc2c(c1)OCO2 (stereo not given) :: FALSE
Clc1ccc(CSC(Cn2ccnc2)c2ccc(Cl)cc2Cl)cc1 (stereo not given) :: FALSE
CC1CCC(C(C)C)C(OC(=O)c2ccccc2N)C1 (stereo not given) :: TRUE
[Cl][Sb]([Cl])[Cl] :: TRUE

Switching to the query record.
What outcome does the record of this test show for Cc1cc(Cl)ccc1O[C@H](C)C(=O)O ?
FALSE
